Experiment: Stability in Simulated Gastric Fluid (SGF)
Type: in vitro ADME
Details: SGF:acetonitrile 9:1, 0.01 mg/mL, 37° C.
Entries and their measured SGF (3 hours), percent of pro-drug metabolized to riluzole follow.
Measurement Name: SGF (3 hours), percent of pro-drug metabolized to riluzole (%)

Entry Smiles	Test Value
CC(C)[C@H](N)C(=O)Nc1nc2ccc(OC(F)(F)F)cc2s1	0
CC(C)COC(=O)Nc1nc2ccc(OC(F)(F)F)cc2s1	5
CCCCOC(=O)Nc1nc2ccc(OC(F)(F)F)cc2s1	0
COC(=O)Nc1nc2ccc(OC(F)(F)F)cc2s1	0
O=C(Cc1ccccc1[N+](=O)[O-])Nc1nc2ccc(OC(F)(F)F)cc2s1	0
CC(C)(C)OC(=O)CCC(=O)Nc1nc2ccc(OC(F)(F)F)cc2s1	0
C[C@H](N)C(=O)Nc1nc2ccc(OC(F)(F)F)cc2s1	0
C[C@@H](N)C(=O)Nc1nc2ccc(OC(F)(F)F)cc2s1	0
Nc1ccc(C(=O)Nc2nc3ccc(OC(F)(F)F)cc3s2)cc1	0
N[C@@H](COCc1ccccc1)C(=O)Nc1nc2ccc(OC(F)(F)F)cc2s1	0
NCCCCC(=O)Nc1nc2ccc(OC(F)(F)F)cc2s1	0
O=C(CCC(=O)Nc1nc2ccc(OC(F)(F)F)cc2s1)NCc1cccnc1	0
CN(C)CCCOC(=O)Nc1nc2ccc(OC(F)(F)F)cc2s1	0
O=C(CCC(=O)Nc1nc2ccc(OC(F)(F)F)cc2s1)NCCN1CCOCC1	0
NCC1(CC(=O)Nc2nc3ccc(OC(F)(F)F)cc3s2)CCCCC1	0
CCCCCCOC(=O)Nc1nc2ccc(OC(F)(F)F)cc2s1	0
CCCOC(=O)Nc1nc2ccc(OC(F)(F)F)cc2s1	0
N[C@H](Cc1ccccc1)C(=O)Nc1nc2ccc(OC(F)(F)F)cc2s1	3
CCOC(=O)Nc1nc2ccc(OC(F)(F)F)cc2s1	0
COC(=O)CCC(=O)Nc1nc2ccc(OC(F)(F)F)cc2s1	3
O=C(O)CCC(=O)Nc1nc2ccc(OC(F)(F)F)cc2s1	0
CN(C)CCOC(=O)Nc1nc2ccc(OC(F)(F)F)cc2s1	0
CNCCCCC(=O)Nc1nc2ccc(OC(F)(F)F)cc2s1	0
